Where do these numbers come from? They come from PubChem BioAssay (NCI).

# System: HCC-2998 colon
# experimental_protocol: NCI-60 one-dose screen, 48 h
# experimental_conditions: 10 µM unless noted
# Description: Growth inhibition of the HCC-2998 human tumor cell line is measured as a screen for anti-cancer activity. Cells are grown in 96 well plates and exposed to the test compound for 48 hours. Compounds are tested at a single concentration, which is 10^-5 M for most compounds. The reported endpoint is percent growth (GI% or GIPRCNT), where numbers from 0 - 100% represent growth inhibition, and numbers from -100% - 0 represent cell death. For example, a value of 40 represents 60% growth inhibition. […]
The panel holds about 83,000 compounds, 20% with a hit somewhere; the sample as a whole holds those more often. Calls of active or inactive are those of the source. How the source made its calls: active means growth percent below 10; inactive means the rest.
Reply using exactly one outcome from YES for active, NO for inactive

# compound, cat
rows = [
    ("COC[C@]12CCC(C)(C)C[C@H]1C1=CC[C@@H]3[C@@]4(C)CCCNC(C)(C)[C@@H]4CC[C@@]3(C)[C@]1(C)CC2", "YES"),
    ("COc1cc(-c2nn(C(C)(C)C)cc2-c2ccnc(NCCCNS(=O)(=O)c3ccccc3)n2)ccc1Cl", "NO"),
    ("CCO/C=N/C1=C(C#N)C(c2ccc(F)cc2)c2sc3c(CC)cccc3c2O1 (centres undefined)", "NO"),
    ("CC1(COc2ccc3ncc(C#Cc4cncc(C(=O)Nc5cccc(C(F)(F)F)c5)c4)n3n2)COC1", "NO"),
    ("COc1c(N2CC3CCCNC3C2)c(F)cc2c(=O)c(C(=O)N/N=C/c3ccccc3)cn(C3CC3)c12 (centres undefined)", "NO"),
]

Exercise: # outcome recorded in this test, key = O=C1CCCc2nc(Nc3ccc(S(=O)(=O)Nc4ccc([N+](=O)[O-])cc4)cc3)ncc21
Key: NO

Exercise: Tell me the recorded outcome of this test for Nc1ncc(-c2ccc(NS(=O)(=O)c3ccc(Cl)c(Cl)c3)cc2)[nH]1 .
Key: NO

Exercise: Assay outcome for COc1cc(OC)c(S(N)(=O)=O)cc1C(=O)/C=C/c1ccc(C)cc1 : what was it?
Key: YES

Exercise: Check the results log: what was the call for O=C(O)c1ccc(-n2cc(CNc3cc(F)c(F)c(F)c3)c(-c3cccc(F)c3)n2)cc1 ?
Key: NO

###

# Tested on: IGROV1 ovarian
# experimental_protocol: NCI-60 one-dose screen, 48 h (100 = growth as untreated, 0 = no growth, -100 = all killed)
# experimental_conditions: 10 µM unless noted
The panel holds about 83,000 compounds, 20% with a hit somewhere; the sample as a whole holds those more often.
reported_property: growth (%)
Provide only the numeric value, understood in %.

// worked examples, growth included
# compound, unit_descriptor, growth
measured = [
    ("C[C@@H]1C[C@H]2C(=O)O[C@@H](C)C(NC(=O)[C@H](Cc3cc(F)cc(F)c3)NC(=O)Nc3ccc(C4CC4)cc3F)C(=O)N3CCC[C@H]3C(=O)N3CCCC[C@H]3C(=O)N[C@@H](CO)C(=O)N2C1 (some centres undefined)", "%", 42.2),
    ("CN(C)CCNC(=O)c1ccc(-c2nc3ccc4[nH]ncc4c3c3c2COCC3)cc1", "%", 0.798),
]

Exercise: For COc1cccc2cc(-c3cc4ccccc4[nH]3)/c(=N\NC(=O)c3ccc(Cl)cc3)oc12 , what is its reported growth?
Key: 26.3

Exercise: // query growth value for entry CC(=O)N(C)C1CCc2c(sc(NC(=O)c3ccc(C(C)(C)C)cc3)c2C(N)=O)C1 (centres undefined)
Key: 100

###

# System: OVCAR-5 ovarian
# experimental_protocol: NCI-60 one-dose screen, 48 h (100 = growth as untreated, 0 = no growth, -100 = all killed)
# experimental_conditions: 10 µM unless noted
Compounds without any hit were thinned out: in the full panel of roughly 83,000, 20% have a hit.
reported_property: growth (%)
Report the value in % with no unit label.

# smiles_str, growth / %
data = [
    ("N#Cc1ccccc1Cn1c2nc(=N)c3ccccc3c-2nc2ccccc21", 78.6),
    ("CCOc1ccc(NC2=C(Cl)C(=O)c3nc(C)ccc3C2=O)cc1", 54.8),
    ("CCCCNNC(=O)c1ccc(-c2cccc(F)c2F)cc1", 24.9),
    ("C[C@@H](Nc1c(C#N)cnc2ccc(-c3cnc(Cl)c(NS(C)(=O)=O)c3)cc12)c1ccccc1", 4.76),
    ("C=CCn1c(SCC(=O)Nc2ccc(C(=O)/C=C/c3cc(OC)c(OC)c(OC)c3)cc2)nnc1-c1c[nH]c2ccccc12", 32.1),
    ("CN1CCN(Cc2ccc(NC(=O)c3cncc(C#Cc4cnc5ccc(OCC6(C)COC6)nn45)c3)cc2C(F)(F)F)CC1", -73.2),
]

Exercise: Form field: reported growth of NS(=O)(=O)c1ccc(Nc2nc(SCC(=O)c3ccc(Cl)cc3)nc3c2CCCC3)cc1
Key: 88.3

Exercise: Give the measured growth of CC1(C)[C@@H](O)CC[C@]2(C)[C@H]3CC[C@@H]4[C@H]5[C@H](C(=O)/C=C\c6ccncc6)CC[C@]5(O)CC[C@@]4(C)[C@]3(C)CC[C@@H]12 .
Key: 47.5

###

# Test system: SW-620 colon
# experimental_protocol: NCI-60 one-dose screen, 48 h (100 = growth as untreated, 0 = no growth, -100 = all killed)
# experimental_conditions: 10 µM unless noted
About 83,000 compounds went through this panel and 20% of them were active in at least one assay; those are over-represented in the sample as a whole.
reported_property: growth (%)
Give the value in % but do not write % after it.

# molecule, growth / %
records = [
    ("CC(=O)C1=C(C)NC(NNC(N)=S)=NC1c1ccccc1 (centres undefined)", 96.8),
]

Next:
Exercise: Field request: growth | item: COc1cc(OC)c(S(N)(=O)=O)cc1C(=O)/C=C/c1ccc(Cl)cc1
Key: -39.9

###

# Test system: NCI-H522 lung
# experimental_protocol: NCI-60 one-dose screen, 48 h
# experimental_conditions: 10 µM unless noted
# Description: Growth inhibition of the NCI-H522 human Non-Small Cell Lung tumor cell line is measured as a screen for anti-cancer activity. Cells are grown in 96 well plates and exposed to the test compound for 48 hours. Compounds are tested at a single concentration, which is 10^-5 M for most compounds. The reported endpoint is percent growth (GI% or GIPRCNT), where numbers from 0 - 100% represent growth inhibition, and numbers from -100% - 0 represent cell death. […]
The panel holds about 83,000 compounds, 20% with a hit somewhere; the sample as a whole holds those more often. Active and inactive are the calls of the source. Rule for the calls: active = growth percent below 10; inactive = the rest.
Hi there, use one of these labels in your reply, thanks! Yes = active, No = inactive

Consider the worked cases shown below.
# compound, cat
rows = [
    ("Cc1ccc(-c2cc3nc(C(Cl)Cl)nc(C)n3n2)cc1", "No"),
    ("COc1ccc2[nH]cc(-c3csc4nc(-c5ccccc5)cn34)c2c1", "Yes"),
    ("CN1CCC(n2cc(Nc3ncc4c(=O)n(-c5c(Cl)cccc5Cl)cc(Br)c4n3)cn2)CC1", "Yes"),
    ("CNCc1cccc2c1OCCCCCCC(C)(O)CC(C)(C)S(=O)(=O)c1ccc(cc1)-c1cnc(N)c(n1)C(=O)N2 (centres undefined)", "Yes"),
    ("Cc1ccc(S(=O)(=O)N(CC[C@@H]2C[C@H]2c2cc3ccccc3o2)S(=O)(=O)c2ccc(C)cc2)cc1", "No"),
]

Exercise: Call for entry N=c1c2cc(-c3ccccc3)oc2ncn1/N=C/c1ccc(Br)cc1 :
Key: No

Exercise: Identify the outcome logged in this assay for the compound shown: CCCCNNC(=O)c1ccc(-c2cccc(F)c2F)cc1
Key: Yes

Exercise: Identify the outcome logged in this assay for the compound shown: O=C(NNc1nc2cc(F)c(F)cc2n2c(CN3CC4CNCC4C3)ccc12)c1cnccn1 (centres undefined)
Key: No

Exercise: Outcome? COc1c(N2CC3CCCNC3C2)c(F)cc2c(=O)c(C(=O)N/N=C/c3ccccc3)cn(C3CC3)c12 (centres undefined)
Key: No

###

# Tested on: RPMI-8226 leukemia
# experimental_protocol: NCI-60 one-dose screen, 48 h (100 = growth as untreated, 0 = no growth, -100 = all killed)
# experimental_conditions: 10 µM unless noted
The panel holds about 83,000 compounds, 20% with a hit somewhere; the sample as a whole holds those more often.
If the reported growth equals or exceeds 30%, assign condition met. If not, assign condition not met.

# compound, cat
rows = [
    ("Nc1nc(Nc2ccccc2SSc2ccccc2Nc2nc(N)nc(-c3cccc(Br)c3)n2)nc(-c2cccc(Br)c2)n1", "condition met"),
    ("Cc1nc2ncc(-c3ccc4ncnc(NCc5ccccc5)c4c3)cc2[nH]1", "condition met"),
    ("CC(C)C[C@@H]1N[C@@]2(C(=O)Nc3ccccc32)[C@@H](c2ccc(F)cc2)[C@@H]1C(=O)c1ccc(O)cc1", "condition met"),
    ("O=C1[C@H]2Cc3c([nH]c4ccccc34)[C@@H](c3c(Cl)cccc3Cl)N2C(=O)CN1C1CCN(CC2CCCCC2)CC1", "condition met"),
    ("Cc1ccc(-n2c(/C=C3\\C(=O)Nc4ccccc43)ccc2CO)cc1", "condition met"),
    ("COc1ccccc1N1CCN(C2=CC(=O)C(C)=C(C)C2=O)CC1", "condition met"),
]

Exercise: Say whether COc1ccc(C2CC(c3ccc(Nc4nc(NCCO)nc(N5CCOCC5)n4)cc3)=Nc3c(N)nc(N)nc3N2)cc1 (stereo unspecified) shows growth of 30% or more.
Key: condition met

Exercise: I'd appreciate it if you could say whether CC[C@]12C=CCN3CC[C@@]4(c5cc(NC(=O)COc6cc(O)c7c(=O)cc(-c8ccccc8)oc7c6)c(OC)cc5N(C)[C@H]4[C@@](O)(C(=O)OC)[C@@H]1OC(C)=O)[C@@H]32 has growth at least equal to 30%.
Key: condition not met

Exercise: Kindly determine if growth recorded for COc1cc2nc(Cl)nc(Nc3cccc(C4=Nc5c(N)nc(N)nc5NC(c5ccccc5)C4)c3)c2cc1OC (stereo unspecified) is above or exactly 30%.
Key: condition met

Exercise: Reported growth reaches at least 30% for Oc1[nH]c2ccccc2c1Nn1c(N=N/C=c2/ccc3c(c2)C=NN=3)n[nH]c1=S ?
Key: condition met

Exercise: Determine whether this compound has growth no lower than 30%: CC1(C)CC[C@]2(CN)CC[C@]3(C)C(=CC[C@@H]4[C@@]5(C)CCCNC(C)(C)[C@@H]5CC[C@]43C)[C@H]2C1
Key: condition met

Exercise: Identify whether the reported growth of the following compound is 30% or greater: C#CCOC(=O)[C@@H]1CCCN1CC#C
Key: condition met

Exercise: Does COc1ccc(/C=C(\C#N)C(=O)N2c3ccccc3Sc3ccc(SC)cc32)cc1F have a reported growth of at least 30%?
Key: condition met
